assayRemarks: in vivo
Assay type: in vivo, mouse
details: male, C57BL/6, mouse, in vivo, iv, 2 mg/kg, 321 in brain after 321 IV 2 mg/kg
Experimental: Total fifteen male mice were used in this study with n=3 mice/time point with sparse sampling study design. Animals were administered through intravenous route with solution formulation of 321 at 2 mg/kg dose. […]
measurementName: half-life (min)
One number for each entry, in min.

Problem: Quote half-life reported for `COc1ccc([C@@]23CCC(OP(=O)(OC(C)C)OC(C)C)=C[C@@H]2N(C)CC3)cc1OC` please.
Result: 6.6

====

Assay type: in vitro ADME, human
details: prodrug remaining, 5 μM, 37° C., 120 min
measurementName: Human Plasma Prodrug (%)
One number for each entry, in %.

Use the examples below as a reference point.
* COc1ccc([C@@]23CCC(OP(=O)(Oc4ccccc4)Oc4ccccc4)=C[C@@H]2N(C)CC3)cc1OC [Compound 320] | 98.2
* COc1ccc([C@@]23CCC(OP(=O)(O)O)=C[C@@H]2N(C)CC3)cc1OC [Compound 359] | 32.8
* COc1ccc([C@@]23CCC(OP4(=O)OCC(C)(C)CO4)=C[C@@H]2N(C)CC3)cc1OC [Compound 323] | 12.8

Problem: Quote Human Plasma Prodrug (%) reported for COc1ccc([C@@]23CCC(OC(=O)OC(C)(C)C)=C[C@@H]2N(C)CC3)cc1OC [Compound 358] please.
Result: 11.7

====

assayRemarks: Pharmacokinetics of 358, single IV in male C57BL/6 mice
Type: in vivo, mouse
details: male, C57BL/6, mouse, plasma; 358 after 358 IV 2 mg/kg, 0.25 h; average of two values; read-out: Plasma concentrations (mean)
Procedure: Total fifteen male mice were used in this study with n=3 mice/time point with sparse sampling study design. Animals were administered through intravenous route with solution formulation of 358 at 2 mg/kg dose. The extraction procedure for plasma/brain samples and the spiked plasma/brain calibration standards were identical (PMSF Stabilized Plasma and Brain used for Preparation of calibration standards): […]
measurementName: concentration at 0.25 h (ng/mL)
Numbers only, in ng/mL.

Problem: Quote concentration at 0.25 h reported for `COc1ccc([C@@]23CCC(OC(=O)OC(C)(C)C)=C[C@@H]2N(C)CC3)cc1OC` please.
Result: 1.51

====

assayRemarks: in vivo
Assay type: in vivo, mouse
details: male, C57BL/6, mouse, in vivo; 323 after 323 IV 2 mg/kg; read-out: Brain-Kp
measurementName: Kp
Answers are plain numbers.

Problem: Quote Kp reported for `COc1ccc([C@@]23CCC(OP4(=O)OCC(C)(C)CO4)=C[C@@H]2N(C)CC3)cc1OC` please.
Result: 0.07

====

Please provide measured Human Plasma Prodrug (%) for the entries that follow.
Type: in vitro ADME, human
details: prodrug remaining, 5 μM, 37° C., 15 min
Give bare numbers, in %.

* COc1ccc([C@@]23CCC(OC(=O)OC(C)(C)C)=C[C@@H]2N(C)CC3)cc1OC [Compound 358] | 75.4
* COc1ccc([C@@]23CCC(OC(=O)N(C)C)=C[C@@H]2N(C)CC3)cc1OC [Compound 324] | 98.2
* COc1ccc([C@@]23CCC(OP(=O)(Oc4ccccc4)Oc4ccccc4)=C[C@@H]2N(C)CC3)cc1OC [Compound 320] | 95.7
* COc1ccc([C@@]23CCC(OP4(=O)OCC(C)(C)CO4)=C[C@@H]2N(C)CC3)cc1OC [Compound 323] | 76.6
* COc1ccc([C@@]23CCC(OP(=O)(O)O)=C[C@@H]2N(C)CC3)cc1OC [Compound 359] | 69.0

With those in mind, consider the next compound.
Problem: Quote Human Plasma Prodrug (%) reported for CCN(C)C(=O)OC1=C[C@@H]2N(C)CC[C@]2(c2ccc(OC)c(OC)c2)CC1 [Compound 326] please.
Result: 98.2

====

Format: in vitro ADME, human
details: prodrug remaining, 5 μM, 37° C., 0 min
Please provide measured Human Plasma Prodrug (%) for the entries that follow.
Numbers only, in %.

Use the examples below as a reference point.
• COc1ccc([C@@]23CCC(OC(=O)N(C)C)=C[C@@H]2N(C)CC3)cc1OC = 100.0
• COc1ccc([C@@]23CCC(OC(=O)N4CCN(C)CC4)=C[C@@H]2N(C)CC3)cc1OC = 100
• COc1ccc([C@@]23CCC(OP(=O)(O)O)=C[C@@H]2N(C)CC3)cc1OC = 100

Give Human Plasma Prodrug (%) for each listed item.
1. COc1ccc([C@@]23CCC(OP(=O)(Oc4ccccc4)Oc4ccccc4)=C[C@@H]2N(C)CC3)cc1OC
2. COc1ccc([C@@]23CCC(OP4(=O)OCC(C)(C)CO4)=C[C@@H]2N(C)CC3)cc1OC
3. CCN(C)C(=O)OC1=C[C@@H]2N(C)CC[C@]2(c2ccc(OC)c(OC)c2)CC1
4. COc1ccc([C@@]23CCC(OC(=O)OC(C)(C)C)=C[C@@H]2N(C)CC3)cc1OC
5. COc1ccc([C@@]23CCC(OP(=O)(OC(C)C)OC(C)C)=C[C@@H]2N(C)CC3)cc1OC

Result:
100
100
100.0
100
100

====

assayRemarks: in vivo
Assay type: in vivo, mouse
details: male, C57BL/6, mouse, in vivo; 323 after 323 IV 2 mg/kg, 0.5 h; average of two values; read-out: Brain concentrations (mean)
measurementName: concentration at 0.5 h
Please provide the amount together with its unit, number first.

Problem: Quote concentration at 0.5 h reported for `COc1ccc([C@@]23CCC(OP4(=O)OCC(C)(C)CO4)=C[C@@H]2N(C)CC3)cc1OC` please.
Result: 4.43 ng/g

====

assayRemarks: in vivo
Format: in vivo, mouse
details: male, C57BL/6, mouse, in vivo, iv, 2 mg/kg, 323 in plasma after 323 IV 2 mg/kg; back extrapolated
measurementName: C0 (ng/mL)
One number for each entry, in ng/mL.

Problem: Quote C0 reported for `COc1ccc([C@@]23CCC(OP4(=O)OCC(C)(C)CO4)=C[C@@H]2N(C)CC3)cc1OC` please.
Result: 609

====

assayRemarks: in vivo
Type: in vivo, mouse
details: male, C57BL/6, mouse, in vivo, iv, 2 mg/kg, 323 in brain after 323 IV 2 mg/kg; back extrapolated
measurementName: C0 (ng/mL)
Numbers only, in ng/mL.

Problem: Quote C0 reported for `COc1ccc([C@@]23CCC(OP4(=O)OCC(C)(C)CO4)=C[C@@H]2N(C)CC3)cc1OC` please.
Result: 33.9

====

assayRemarks: Plasma Stability Assay (Example A3), rat plasma
Type: in vitro ADME
details: prodrug remaining, 10 μM, 37° C., 30 min
Under this convention, 1 denotes Rat Plasma Prodrug (%) strictly below 70% and -1 denotes Rat Plasma Prodrug (%) at or above 70%.

Answered examples (5):
• COc1ccc([C@@]23CCC(OP(=O)(O)OCOC(=O)OC(C)C)=C[C@@H]2N(C)CC3)cc1OC = 1
• COc1ccc([C@@]23CCC(OP(=O)(O)OCOC(=O)C(C)(C)C)=C[C@@H]2N(C)CC3)cc1OC = -1
• COc1ccc([C@@]23CCC(OP4(=O)OCC(C)(C)CO4)=C[C@@H]2N(C)CC3)cc1OC = -1
• COc1ccc([C@@]23CCC(OP4(=O)OC(C)CC(C)O4)=C[C@@H]2N(C)CC3)cc1OC (stereo partly shown) = -1
• COc1ccc([C@@]23CCC(OP4(=O)OCCCO4)=C[C@@H]2N(C)CC3)cc1OC = -1

Problem: Rat Plasma Prodrug (%) strictly < 70% for this compound? `COc1ccc([C@@]23CCC(OP(=O)(O)OCOC(=O)C(C)C)=C[C@@H]2N(C)CC3)cc1OC`
Result: 1

====

Please provide measured Human Plasma Prodrug (%) for the entries that follow.
assayRemarks: Plasma Stability Assay (Example A3), human plasma
Format: in vitro ADME
details: prodrug remaining, 10 μM, 37° C., 120 min
Please provide the amount together with its unit, number first.

Use the examples below as a reference point.
• COc1ccc([C@@]23CCC(OP(=O)(O)OCOC(=O)OC(C)C)=C[C@@H]2N(C)CC3)cc1OC [Compound 410] = 88.2%
• COc1ccc([C@@]23CCC(OP4(=O)OCCCO4)=C[C@@H]2N(C)CC3)cc1OC [Compound 422] = 39.2%
• COc1ccc([C@@]23CCC(OP4(=O)OCC(C)(C)CO4)=C[C@@H]2N(C)CC3)cc1OC [Compound 323] = 27.0%
• COc1ccc([C@@]23CCC(OP(=O)(OC(C)C)OC(C)C)=C[C@@H]2N(C)CC3)cc1OC [Compound 321] = 94.5%
• COc1ccc([C@@]23CCC(OP4(=O)OC(C)CC(C)O4)=C[C@@H]2N(C)CC3)cc1OC (stereo partly shown) [Compound 423] = 97.80%

Give Human Plasma Prodrug (%) for each listed item.
1. COc1ccc([C@@]23CCC(OP(=O)(O)OCOC(=O)C(C)C)=C[C@@H]2N(C)CC3)cc1OC [Compound 408]
2. COc1ccc([C@@]23CCC(OP(=O)(O)OCOC(=O)C(C)(C)C)=C[C@@H]2N(C)CC3)cc1OC [Compound 409]

Result:
1: 45.4%; 2: 87.3%
